Just for reference, patent US20200397796A1 is where these values come from.

- procedure summary: Phase 1 clinical trial, SRA737 in combination with gemcitabine dose escalation
- Format: in vivo, human
- experimental conditions: human, plasma, oral, 80 mg; Day 10; mean, n = 3
outcome measure: Tmax (h)
API: value field is a number in h; no unit string.

Find the measured Tmax of N#Cc1cnc(Nc2cc(NCC3CNCCO3)c(C(F)(F)F)cn2)cn1 (stereo not shown) and report it.
2

====

- procedure summary: Phase 1 clinical trial, SRA737 monotherapy dose escalation
- Assay type: in vivo, human
- experimental conditions: human, in vivo, 80 mg, Tmax
outcome measure: Tmax (h)
Value expressed in h; do not type the unit.

Specify measured Tmax for N#Cc1cnc(Nc2cc(NCC3CNCCO3)c(C(F)(F)F)cn2)cn1 (stereo not shown) .
4

====

- procedure summary: Phase 1 clinical trial, SRA737 monotherapy dose escalation
- Type: in vivo, human
- experimental conditions: human, in vivo, 1300 mg, Cmax
outcome measure: Cmax (ng/mL)
The reply should contain only the number, in ng/mL.

// fetch Cmax given entry N#Cc1cnc(Nc2cc(NCC3CNCCO3)c(C(F)(F)F)cn2)cn1 (stereo not shown) [SRA737]
3230

====

- procedure summary: SRA737 plasma and tumor concentrations in HT29 xenograft model
- Assay type: in vivo, mouse
- experimental conditions: mouse, plasma, oral, 12.5 mg/kg; read-out: Plasma (24 h) concentration
outcome measure: concentration at 24 h (nM)
Numbers only; they are read as nM.

Tell us which concentration at 24 h value is on record for N#Cc1cnc(Nc2cc(NCC3CNCCO3)c(C(F)(F)F)cn2)cn1 (stereo not shown)
78

====

- procedure summary: GLP 28-day repeat oral dose toxicity and toxicokinetics, minipig
- Format: in vivo
- experimental conditions: in vivo, po; Minipig Male; 40 mg/kg/day, daily dosing for 28 days
outcome measure: AUC(0-t) (ng·h/mL)
Give just the number in ng·h/mL; leave the unit off.

Quick one: give measured AUC(0-t) for N#Cc1cnc(Nc2cc(NCC3CNCCO3)c(C(F)(F)F)cn2)cn1 (stereo not shown) [SRA737]
22200

====

- procedure summary: Plasma protein binding, ultracentrifugation, minipig
- Type: in vitro ADME
- experimental conditions: plasma; minipig; summary of 1 and 10 μM
outcome measure: fraction unbound

Indicate the recorded fraction unbound value for this compound: N#Cc1cnc(Nc2cc(NCC3CNCCO3)c(C(F)(F)F)cn2)cn1 (stereo not shown)
~0.2

====

- procedure summary: Phase 1 clinical trial, SRA737 in combination with gemcitabine dose escalation
- Format: in vivo, human
- experimental conditions: human, plasma, oral, 500 mg; Day 10; mean, n = 19-22
outcome measure: Cmax (ng/mL)
The answer is to be given in ng/mL; state only the numeric part.

For the molecule N#Cc1cnc(Nc2cc(NCC3CNCCO3)c(C(F)(F)F)cn2)cn1 (stereo not shown) , give its measured Cmax value.
1720

====

- procedure summary: SRA737 plasma and tumor concentrations in HT29 xenograft model
- Assay type: in vivo, mouse
- experimental conditions: mouse, plasma, oral, 6.25 mg/kg
outcome measure: concentration at 6 h (nM)
The reply should contain only the number, in nM.

Specify reported concentration at 6 h for the molecule shown: N#Cc1cnc(Nc2cc(NCC3CNCCO3)c(C(F)(F)F)cn2)cn1 (stereo not shown)
323

====

- procedure summary: Phase 1 clinical trial, SRA737 in combination with gemcitabine dose escalation
- Assay type: in vivo, human
- experimental conditions: human, plasma, oral, 300 mg; Day 10; mean, n = 7
outcome measure: Cmax (ng/mL)
// note: answer is a bare numeric in ng/mL

Supply Cmax value. Item: N#Cc1cnc(Nc2cc(NCC3CNCCO3)c(C(F)(F)F)cn2)cn1 (stereo not shown) [SRA737]
1080
